assay: in vivo; details: mouse, po
Assign LD50 to each entry below.
Just the number please, in mg/kg, no unit attached.

LD50 for CN1c2c(C(=O)NCCCNC3CCCCC3)nn(-c3ccccc3)c2-c2ccccc2S1(=O)=O is 720

LD50 for CCN1CCCC1CNC(=O)c1nn(-c2ccccc2)c2c1N(C)S(=O)(=O)c1ccccc1-2 (centres unmarked) is 760

LD50 for CN(C)CCCNC(=O)c1nn(-c2cccc(F)c2)c2c1N(C)S(=O)(=O)c1ccccc1-2 is 1520

LD50 for CCN(CC)CCNC(=O)c1nn(-c2cccc(F)c2)c2c1N(C)S(=O)(=O)c1ccccc1-2 is 1600

LD50 for CN(C)CCCNC(=O)c1nn(-c2ccccc2)c2c1N(C)S(=O)(=O)c1ccccc1-2 is 1380

LD50 for CCN(CC)CCNC(=O)c1nn(-c2ccccc2)c2c1N(C)S(=O)(=O)c1ccccc1-2 is 2850

LD50 for CN1c2c(C(=O)NCCCNC3CCCCC3)nn(-c3cccc(F)c3)c2-c2ccccc2S1(=O)=O is 720

LD50 for CN1c2c(C(=O)NCCCN3CCOCC3)nn(-c3ccccc3)c2-c2ccccc2S1(=O)=O is 2200

---

test system: phenylquinone writhes; assay: Analgesic activity according to Hendershot et al., phenylquinone writhes, modified; type: in vivo, mouse; conditions: Mus musculus; 100 mg/kg oral, 2 h before phenylquinone, 5-15 min, female mice
parameter: inhibition in vivo at 100 mg/kg (%)
Just the number please, in %, no unit attached.

inhibition in vivo at 100 mg/kg for CN(C)CCCNC(=O)c1nn(-c2cccc(F)c2)c2c1N(C)S(=O)(=O)c1ccccc1-2 is 65

inhibition in vivo at 100 mg/kg for CCN(CC)CCNC(=O)c1nn(-c2ccccc2)c2c1N(C)S(=O)(=O)c1ccccc1-2 is 72

inhibition in vivo at 100 mg/kg for CCN1CCCC1CNC(=O)c1nn(-c2ccccc2)c2c1N(C)S(=O)(=O)c1ccccc1-2 (centres unmarked) is 47

inhibition in vivo at 100 mg/kg for CN1c2c(C(=O)NCCCN3CCOCC3)nn(-c3ccccc3)c2-c2ccccc2S1(=O)=O is 60

inhibition in vivo at 100 mg/kg for CCN(CC)CCNC(=O)c1nn(-c2cccc(F)c2)c2c1N(C)S(=O)(=O)c1ccccc1-2 is 72

inhibition in vivo at 100 mg/kg for CN1c2c(C(=O)NCCCNC3CCCCC3)nn(-c3ccccc3)c2-c2ccccc2S1(=O)=O is 59

inhibition in vivo at 100 mg/kg for CN1c2c(C(=O)NCCCNC3CCCCC3)nn(-c3cccc(F)c3)c2-c2ccccc2S1(=O)=O is 79

inhibition in vivo at 100 mg/kg for CN(C)CCCNC(=O)c1nn(-c2ccccc2)c2c1N(C)S(=O)(=O)c1ccccc1-2 is 92

---

test system: pyresis; assay: Antipyretic activity according to Burn et al.; type: in vivo, rat; conditions: 100 mg/g (so in the source) per os, female rats
parameter: Reduction of the pyresis at hour 4 (°C)
Just the number please, in °C, no unit attached.

Reduction of the pyresis at hour 4 for CN1c2c(C(=O)NCCCNC3CCCCC3)nn(-c3cccc(F)c3)c2-c2ccccc2S1(=O)=O is 1.42

Reduction of the pyresis at hour 4 for CCN1CCCC1CNC(=O)c1nn(-c2ccccc2)c2c1N(C)S(=O)(=O)c1ccccc1-2 (centres unmarked) is 1.24

Reduction of the pyresis at hour 4 for CN(C)CCCNC(=O)c1nn(-c2ccccc2)c2c1N(C)S(=O)(=O)c1ccccc1-2 is 0.89

Reduction of the pyresis at hour 4 for CCN(CC)CCNC(=O)c1nn(-c2cccc(F)c2)c2c1N(C)S(=O)(=O)c1ccccc1-2 is 0.75

Reduction of the pyresis at hour 4 for CN1c2c(C(=O)NCCCN3CCOCC3)nn(-c3ccccc3)c2-c2ccccc2S1(=O)=O is 1.08

Reduction of the pyresis at hour 4 for CN(C)CCCNC(=O)c1nn(-c2cccc(F)c2)c2c1N(C)S(=O)(=O)c1ccccc1-2 is 0.75

Reduction of the pyresis at hour 4 for CN1c2c(C(=O)NCCCNC3CCCCC3)nn(-c3ccccc3)c2-c2ccccc2S1(=O)=O is 1.47

Reduction of the pyresis at hour 4 for CCN(CC)CCNC(=O)c1nn(-c2ccccc2)c2c1N(C)S(=O)(=O)c1ccccc1-2 is 1.44

---

assay: in vivo; details: rat, in vivo, po, 30 mg/kg/day
parameter: mortality at 120 h (%)
Just the number please, in %, no unit attached.

mortality at 120 h for CN1C(C(=O)Nc2ccccn2)=C(O)c2ccccc2S1(=O)=O [Piroxicam, piroxicam, reference compound] is 40

---

tested on: rats; format: in vivo, rat; conditions: 100 mg/kg (maximum tested dose), single oral administration, male rats
Assign Average number of lesions per animal to each entry below.
I only need the number, thanks.

Known value: rats Average number of lesions per animal of the compound CN1c2c(C(=O)NCCCNC3CCCCC3)nn(-c3cccc(F)c3)c2-c2ccccc2S1(=O)=O equals 0

Known value: rats Average number of lesions per animal of the compound CCN1CCCC1CNC(=O)c1nn(-c2ccccc2)c2c1N(C)S(=O)(=O)c1ccccc1-2 (centres unmarked) equals 0

Known value: rats Average number of lesions per animal of the compound CN1c2c(C(=O)NCCCNC3CCCCC3)nn(-c3ccccc3)c2-c2ccccc2S1(=O)=O equals 0

Known value: rats Average number of lesions per animal of the compound CCN(CC)CCNC(=O)c1nn(-c2ccccc2)c2c1N(C)S(=O)(=O)c1ccccc1-2 equals 0

Known value: rats Average number of lesions per animal of the compound CN1c2c(C(=O)NCCCN3CCOCC3)nn(-c3ccccc3)c2-c2ccccc2S1(=O)=O equals 0

Known value: rats Average number of lesions per animal of the compound CN(C)CCCNC(=O)c1nn(-c2cccc(F)c2)c2c1N(C)S(=O)(=O)c1ccccc1-2 equals 0

Known value: rats Average number of lesions per animal of the compound CN(C)CCCNC(=O)c1nn(-c2ccccc2)c2c1N(C)S(=O)(=O)c1ccccc1-2 equals 0

Known value: rats Average number of lesions per animal of the compound CCN(CC)CCNC(=O)c1nn(-c2cccc(F)c2)c2c1N(C)S(=O)(=O)c1ccccc1-2 equals 0

---

assay: in vivo; conditions: rat, in vivo, po, 20 mg/kg/day
parameter: mortality at 120 h (%)
Just the number please, in %, no unit attached.

mortality at 120 h for CN1C(C(=O)Nc2ccccn2)=C(O)c2ccccc2S1(=O)=O [Piroxicam, piroxicam, reference compound] is 0

---

assay: in vivo; details: rat, in vivo, po, 350 mg/kg/day; read-out: % of dead animals
parameter: mortality at 120 h (%)
Just the number please, in %, no unit attached.

mortality at 120 h for CCN(CC)CCNC(=O)c1nn(-c2cccc(F)c2)c2c1N(C)S(=O)(=O)c1ccccc1-2 is 0

mortality at 120 h for CN(C)CCCNC(=O)c1nn(-c2cccc(F)c2)c2c1N(C)S(=O)(=O)c1ccccc1-2 is 0

---

Assign mortality at 120 h to each entry below.
Assay: in vivo
Details: rat, in vivo, po, 200 mg/kg/day; read-out: % of dead animals
Excerpt: Five days subacute toxicity in rats per os Animals: 5 female rats for each group, average body weight: 150g.
Just the number please, in %, no unit attached.

mortality at 120 h for CN(C)CCCNC(=O)c1nn(-c2ccccc2)c2c1N(C)S(=O)(=O)c1ccccc1-2 [Compound I-2] is 0

mortality at 120 h for CCN(CC)CCNC(=O)c1nn(-c2ccccc2)c2c1N(C)S(=O)(=O)c1ccccc1-2 [Compound I-1] is 0

mortality at 120 h for CCN1CCCC1CNC(=O)c1nn(-c2ccccc2)c2c1N(C)S(=O)(=O)c1ccccc1-2 (stereo not drawn) [Compound I-24] is 0

mortality at 120 h for CN1c2c(C(=O)NCCCN3CCOCC3)nn(-c3ccccc3)c2-c2ccccc2S1(=O)=O [Compound I-3] is 0

mortality at 120 h for CN1c2c(C(=O)NCCCNC3CCCCC3)nn(-c3ccccc3)c2-c2ccccc2S1(=O)=O [Compound I-4] is 20

mortality at 120 h for CN1c2c(C(=O)NCCCNC3CCCCC3)nn(-c3cccc(F)c3)c2-c2ccccc2S1(=O)=O [Compound I-23] is 0

---

experiment: in vivo; conditions: rat, in vivo, po, 100 mg/kg/day; read-out: % of dead animals per day
parameter: mortality (%)
Just the number please, in %, no unit attached.

mortality for CN1c2c(C(=O)NCCCNC3CCCCC3)nn(-c3ccccc3)c2-c2ccccc2S1(=O)=O is 0

---

Assign LD50 to each entry below.
test: in vivo; format: in vivo; conditions: rat, in vivo, po; read-out: LD 50 (Litchfield and Wilcoxon)
Just the number please, in mg/kg, no unit attached.

LD50 for CN1c2c(C(=O)NCCCNC3CCCCC3)nn(-c3cccc(F)c3)c2-c2ccccc2S1(=O)=O is 1200

LD50 for CN(C)CCCNC(=O)c1nn(-c2cccc(F)c2)c2c1N(C)S(=O)(=O)c1ccccc1-2 is 2260

LD50 for CN(C)CCCNC(=O)c1nn(-c2ccccc2)c2c1N(C)S(=O)(=O)c1ccccc1-2 is 2400

LD50 for CCN(CC)CCNC(=O)c1nn(-c2ccccc2)c2c1N(C)S(=O)(=O)c1ccccc1-2 is 2700
